Biological target: DGKα (Homo sapiens, UniProt P23743)
Sequence (P23743 whole entry): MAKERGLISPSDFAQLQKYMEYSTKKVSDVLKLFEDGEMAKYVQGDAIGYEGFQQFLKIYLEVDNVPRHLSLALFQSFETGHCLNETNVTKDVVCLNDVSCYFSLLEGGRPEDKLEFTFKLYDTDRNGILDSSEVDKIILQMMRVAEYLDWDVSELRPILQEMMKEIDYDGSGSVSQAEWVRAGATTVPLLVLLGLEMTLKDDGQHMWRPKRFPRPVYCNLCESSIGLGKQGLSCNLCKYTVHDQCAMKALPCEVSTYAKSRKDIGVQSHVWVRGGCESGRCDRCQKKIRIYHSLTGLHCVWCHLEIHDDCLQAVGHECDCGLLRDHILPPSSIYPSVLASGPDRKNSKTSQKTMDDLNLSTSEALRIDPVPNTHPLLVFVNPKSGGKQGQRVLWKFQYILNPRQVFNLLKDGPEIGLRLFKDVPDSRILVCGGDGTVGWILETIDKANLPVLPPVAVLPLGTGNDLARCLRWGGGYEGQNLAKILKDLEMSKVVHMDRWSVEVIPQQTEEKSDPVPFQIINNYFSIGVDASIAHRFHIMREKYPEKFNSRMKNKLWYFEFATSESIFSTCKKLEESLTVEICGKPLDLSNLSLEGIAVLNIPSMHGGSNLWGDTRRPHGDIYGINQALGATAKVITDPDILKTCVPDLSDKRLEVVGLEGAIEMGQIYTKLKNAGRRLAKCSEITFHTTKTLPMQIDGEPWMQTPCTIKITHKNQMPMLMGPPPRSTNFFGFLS
Assay: DGK assay on OST-DGKα enriched MDCK homogenates
Type: biochemical
Design: expressed in transfected cells; host or cells: MDCK cells (vector-infected, doxycycline-induced), crude homogenate
Conditions: residual OST-DGKα activity at 0.1, 1.0, 10.0 and 100.0 µM
Procedure: Madin-Darby canine kidney (MDCK) cells stably expressing One Strep Tag DGKα (OST-DGKα) were prepared by infecting MDCK cells with a vector expressing an inducible OST tagged DGKα constructs. MDCK cells infected with empty vector were used as controls. […] Percentage residual activity was calculated as follows: (OST-DGKα homogenate with inhibitor – vector homogenate)/(OST-DGKα homogenate with DMSO – vector homogenate)×100. […]
property: pIC50
Conceptually, pIC50 converts a concentration in mol/L into minus its log10.

Here's what some known entries look like.
{"smiles entry": "Cc1ccc2c(C(=O)CN3CCN(C(=O)c4ccccc4)CC3)c(C)[nH]c2c1", "pIC50": 5.49}
{"smiles entry": "COc1ccc(C(=O)N2CCN(CC(=O)c3c(C)[nH]c4cc(C)ccc34)CC2)cc1", "pIC50": 5.44}
{"smiles entry": "Cc1ccc2c(C(=O)CN3CCN(C(=O)c4ccc(C#N)cc4)CC3)c(C)[nH]c2c1", "pIC50": 5.16}

--- query ---
Answer with pIC50 of Cc1nc2sccn2c(=O)c1CCN1CCC(=C(c2ccccc2)c2ccc(F)cc2)CC1 measured for DGKα (Homo sapiens, UniProt P23743).
4.82
